test: acute toxicity; parameters: species or system rat (H-Wistar, both sexes); settings: rat, in vivo, po; footnote x of Table 3
Experimental Endpoint: LD50 (mg/kg)

Compound: CCC1(c2ccccc2)C(=O)NC(=O)NC1=O [phenobarbital, reference compound]
Assay Result: 245

----------
This section presents compounds with their documented Narcosis period in % of the control, 1 hour values.
test system: hexobarbital oxidase; test: in vivo measurement of hexobarbital oxidase activity (hexobarbital narcosis period); design: species or system rat (female Hann.-Wistar); details: 40 mg./kg. oral single dose; hexobarbital sodium 60 mg./kg. i.v. 1 hour after; n=10; mean ± S.E.
Experimental Endpoint: Narcosis period in % of the control, 1 hour (%)

Compound: CCC1(c2ccccc2)C(=O)NC(=O)NC1=O [phenobarbital, reference compound]
Assay Result: 250

Compound: CCC(O)(c1ccc(OCCN2CCCC2)cc1)c1ccccc1OC (centres unmarked)
Assay Result: 113

Compound: CCC(O)(c1ccc(OCCN2CCCCC2)cc1)c1cccc(C(F)(F)F)c1 (centres unmarked)
Assay Result: 177

Compound: CCC(O)(c1ccc(F)cc1)c1ccc(OCCN2CCCCC2)cc1 (centres unmarked)
Assay Result: 120

Compound: CCC(O)(c1ccc(OCCN(C)C)cc1)c1cccc(C(F)(F)F)c1 (centres unmarked)
Assay Result: 180

meta.source: patent US4645774A
